# Tested on: UT-SCC-40
# assayRemarks: relative IC50 (midpoint of the fitted curve; maximal inhibition may be below 50%); higher = less potent
# cond: culture condition: on top of Myogel; treatment time: 3 days
reportedEndpoint: relative IC50 (nM)

P = Cn1c(=O)c(F)c(Nc2ccc(I)cc2F)c2c(=O)n(C[C@@H](O)CO)cnc21 [TAK-733]
Q = Cc1c(CN2CCN(C(=O)[C@H](C)O)CC2)sc2c(N3CCOCC3)nc(-c3cnc(N)nc3)nc12 [Apitolisib]
Query string: Identify the entry with the smaller relative IC50: P or Q . Kindly give the label for the entry you pick.
Result string: P

P = COc1ncc(-c2ccc3nccc(-c4ccnnc4)c3c2)cc1NS(=O)(=O)c1ccc(F)cc1F [Omipalisib]
Q = COc1cc(F)c(F)c(Nc2ccc(I)cc2F)c1NS(=O)(=O)C1(C[C@H](O)CO)CC1 [Refametinib]
R = CC(=O)Nc1cccc(-n2c(=O)n(C3CC3)c(=O)c3c(Nc4ccc(I)cc4F)n(C)c(=O)c(C)c32)c1 [Trametinib]
Query string: Put these in order: smallest relative IC50 first, largest last. Please list the labels in the order you were asked to rank them.
Result string: R, P, Q
(R: 4.8 nM, P: 12.9 nM, Q: 83.3 nM)

a = O=C(NC[C@H](O)CO)c1ccncc1Nc1ccc(I)cc1F [Pimasertib]
b = C=CC(=O)Nc1cc2c(Nc3ccc(F)c(Cl)c3)ncnc2cc1OCCCN1CCOCC1 [Canertinib]
c = Cn1cnc2c(F)c(Nc3ccc(Br)cc3F)c(C(=O)NOCCO)cc21 [Binimetinib]
Query string: // ranking: key=relative IC50, reverse=True Please list the labels in the order you were asked to rank them.
Result string: b, a, c

Origin of values: the supplement of paper PMC7017272
